Protein target, amino acids: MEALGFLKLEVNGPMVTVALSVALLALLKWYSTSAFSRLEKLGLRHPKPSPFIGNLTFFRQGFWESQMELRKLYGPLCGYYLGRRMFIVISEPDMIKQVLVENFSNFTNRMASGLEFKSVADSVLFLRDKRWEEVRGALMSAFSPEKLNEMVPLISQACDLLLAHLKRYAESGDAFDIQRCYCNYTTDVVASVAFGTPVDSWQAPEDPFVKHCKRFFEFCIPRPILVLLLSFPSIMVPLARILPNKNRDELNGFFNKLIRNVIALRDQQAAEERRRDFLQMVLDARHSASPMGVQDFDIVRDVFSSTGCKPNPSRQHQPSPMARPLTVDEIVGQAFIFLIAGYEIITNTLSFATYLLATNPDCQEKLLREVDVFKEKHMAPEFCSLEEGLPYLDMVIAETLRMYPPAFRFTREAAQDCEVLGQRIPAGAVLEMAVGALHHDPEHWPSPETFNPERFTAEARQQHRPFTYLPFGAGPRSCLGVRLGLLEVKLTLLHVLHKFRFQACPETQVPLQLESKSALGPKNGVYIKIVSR
Metric: IC50 (nM)
Record the value in nM, omitting the unit from your answer.

In the examples that follow, each entry is paired with its recorded IC50.
Task: I would be grateful if you could share the reported IC50 for O=C(O)CCCC/C=C(\c1ccc(-c2nc(C(=O)NCCCN3CCOCC3)co2)cc1)c1cccnc1 .
Result: 50.8

Task: Could you tell me which IC50 is on file for COc1ccc(CCCNC(=O)c2coc(-c3ccc(/C(=C\CCCCC(=O)O)c4cccnc4)cc3)n2)cc1 ?
Result: 2.7

Turning to the following compound.
Task: Request the reported IC50 associated with O=C(O)CCCC/C=C(\c1ccc(-c2nc(C(=O)NCCOCc3ccccc3)co2)cc1)c1cccnc1
Result: 47.5

---

Measured on: Thromboxane A2 receptor (Homo sapiens, UniProt P21731)
Sequence (P21731 whole entry): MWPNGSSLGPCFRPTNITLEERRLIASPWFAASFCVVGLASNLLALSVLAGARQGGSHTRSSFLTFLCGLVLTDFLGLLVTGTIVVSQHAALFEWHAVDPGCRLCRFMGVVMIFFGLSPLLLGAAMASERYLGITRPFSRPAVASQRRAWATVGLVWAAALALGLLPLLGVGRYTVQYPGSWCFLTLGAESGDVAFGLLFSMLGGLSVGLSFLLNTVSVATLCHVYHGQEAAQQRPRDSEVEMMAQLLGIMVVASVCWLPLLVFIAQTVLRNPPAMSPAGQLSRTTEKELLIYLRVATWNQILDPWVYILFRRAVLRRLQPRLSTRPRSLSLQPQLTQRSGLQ
Assay details: In vitro for antagonistic activity against […]
# Kd per entry
// note: answer is a bare numeric in nM

Task: Recorded Kd of O=C(O)CCCC/C=C(\c1ccc(-c2nc(C(=O)NCCOCc3ccccc3)co2)cc1)c1cccnc1 , please.
Result: 156

Task: Record request: Kd value, item COc1ccc(CCCNC(=O)c2coc(-c3ccc(/C(=C\CCCCC(=O)O)c4cccnc4)cc3)n2)cc1
Result: 119

Task: Would you mind telling me what Kd value was observed for CCOCCCNC(=O)c1coc(-c2ccc(/C(=C\CCCCC(=O)O)c3cccnc3)cc2)n1 ?
Result: 1400

Task: Which measured Kd value corresponds to O=C(O)CCCCO/N=C(/c1cccnc1)c1cccc(C(F)(F)F)c1 [RIDOGREL] ?
Result: 8000

Task: What value of Kd has been reported for the following compound? O=C(O)CCCC/C=C(\c1ccc(-c2nc(C(=O)NCCc3ccccc3)co2)cc1)c1cccnc1
Result: 82.4

New cases:
Task: Fill in: Kd of O=C(O)CCCC/C=C(\c1ccc(-c2nc(C(=O)NCCOCC3CCCCC3)co2)cc1)c1cccnc1 is ___
Result: 43.3

---

// reported pIC50 for each item listed
Organism: Homo sapiens
Assay details: Inhibition of U-46,619 (1 uM)-induced platelet aggregation in human platelet-rich plasma(PRP)
Format: functional
Units for pIC50: none; it is -log10 of a concentration expressed in mol/L.

Task: Give the measured pIC50 of O=C(O)CCCC/C=C(\c1ccc(-c2nc(C(=O)NCCCCC3CCCCC3)co2)cc1)c1cccnc1 .
Result: 6.40

Task: Can you look up the measured pIC50 of CC(OCCCNC(=O)c1coc(-c2ccc(/C(=C\CCCCC(=O)O)c3cccnc3)cc2)n1)C1CCCCC1 (stereo not given) for me?
Result: 5.30

Task: Which pIC50 is listed for O=C(O)CCCC/C=C(\c1ccc(-c2nc(C(=O)N[C@@H]3C[C@H]3c3ccccc3)co2)cc1)c1cccnc1 ?
Result: 5.30

Task: Recorded pIC50 of O=C(O)CCCC/C=C(\c1ccc(-c2nc(C(=O)NS(=O)(=O)c3ccc(Cl)cc3)co2)cc1)c1cccnc1 , please.
Result: 5.40

Task: What measured pIC50 goes with O=C(O)CCCC/C=C(\c1ccc(-c2nc(C(=O)NCCCCOc3ccccc3)co2)cc1)c1cccnc1 ?
Result: 6.30
